Target: Xanthine dehydrogenase/oxidase (Homo sapiens, UniProt P47989)
Sequence (P47989 whole entry): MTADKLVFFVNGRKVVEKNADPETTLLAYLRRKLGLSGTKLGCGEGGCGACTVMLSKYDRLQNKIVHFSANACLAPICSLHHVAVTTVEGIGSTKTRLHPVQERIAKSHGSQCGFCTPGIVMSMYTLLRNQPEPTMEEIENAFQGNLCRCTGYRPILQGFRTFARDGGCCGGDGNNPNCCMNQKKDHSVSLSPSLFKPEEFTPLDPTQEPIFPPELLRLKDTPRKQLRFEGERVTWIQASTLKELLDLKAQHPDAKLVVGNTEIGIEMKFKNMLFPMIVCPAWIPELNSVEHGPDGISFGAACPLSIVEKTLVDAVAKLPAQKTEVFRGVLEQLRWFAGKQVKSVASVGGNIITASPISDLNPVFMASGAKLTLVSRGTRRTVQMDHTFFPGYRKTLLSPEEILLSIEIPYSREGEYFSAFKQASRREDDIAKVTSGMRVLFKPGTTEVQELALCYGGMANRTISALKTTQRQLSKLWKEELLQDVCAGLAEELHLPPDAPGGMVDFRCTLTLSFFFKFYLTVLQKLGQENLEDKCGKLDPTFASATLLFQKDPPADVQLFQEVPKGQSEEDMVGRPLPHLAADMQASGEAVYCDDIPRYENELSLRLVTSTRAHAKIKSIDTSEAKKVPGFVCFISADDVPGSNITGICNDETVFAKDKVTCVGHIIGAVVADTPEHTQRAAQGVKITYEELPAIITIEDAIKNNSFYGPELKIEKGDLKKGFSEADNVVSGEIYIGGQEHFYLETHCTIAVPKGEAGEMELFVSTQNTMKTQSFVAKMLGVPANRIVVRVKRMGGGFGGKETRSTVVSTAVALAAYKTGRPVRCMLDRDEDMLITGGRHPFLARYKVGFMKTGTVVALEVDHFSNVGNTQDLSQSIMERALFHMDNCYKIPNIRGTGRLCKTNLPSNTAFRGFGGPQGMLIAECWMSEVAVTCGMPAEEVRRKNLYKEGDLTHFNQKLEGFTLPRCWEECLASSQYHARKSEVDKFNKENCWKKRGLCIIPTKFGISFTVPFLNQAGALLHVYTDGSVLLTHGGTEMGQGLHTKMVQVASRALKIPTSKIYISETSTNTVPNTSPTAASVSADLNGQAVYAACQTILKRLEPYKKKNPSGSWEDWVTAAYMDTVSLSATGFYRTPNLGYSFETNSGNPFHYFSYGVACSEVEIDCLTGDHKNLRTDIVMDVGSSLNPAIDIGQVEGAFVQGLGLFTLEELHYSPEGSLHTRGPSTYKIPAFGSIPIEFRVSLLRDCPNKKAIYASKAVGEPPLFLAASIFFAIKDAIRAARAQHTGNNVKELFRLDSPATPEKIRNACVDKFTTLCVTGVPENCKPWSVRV
Experiment: Inhibition of Xanthine oxidase (unknown origin)
Quick reference for pIC50 among some compounds
pIC50 here is simply -log10 of the concentration when that concentration is written in mol/L.

Req: Can you share its pIC50? I mean this compound: "COc1cc2ccc(C(=O)NCCCCc3ccc(O)c(O)c3)cc2cc1OC"
Resp: 4.88

Req: Can you share its pIC50? I mean this compound: "Oc1ccc(/C=C/c2cc(O)cc3oc(-c4ccc(O)cc4)c(-c4cc(O)cc(O)c4)c23)cc1"
Resp: 4.91

Req: Can you share its pIC50? I mean this compound: "CCn1c(O)c(C(c2ccc(Br)cc2)c2c(O)n(CC)c(=S)n(CC)c2=O)c(=O)n(CC)c1=S"
Resp: 5.75

Req: Can you share its pIC50? I mean this compound: O=C1CCC(Nc2nc3cc(C(=O)Nc4cc(O)c(O)c(O)c4)ccc3n2Cc2ccc(O)cc2)C(=O)N1 (stereo unspecified)
Resp: 4.73

Req: Can you share its pIC50? I mean this compound: "OCc1nnn(Cc2cccc(Br)c2)c1CO"
Resp: 6.15

Req: Can you share its pIC50? I mean this compound: "Cc1c(/N=C/c2ccc(C(=O)Nc3nc4ccc(S(C)(=O)=O)cc4s3)cc2)c(=O)n(-c2ccccc2)n1C"
Resp: 5.65

====

Target: Xanthine dehydrogenase/oxidase (Bos taurus, UniProt P80457)
Sequence (P80457 whole entry): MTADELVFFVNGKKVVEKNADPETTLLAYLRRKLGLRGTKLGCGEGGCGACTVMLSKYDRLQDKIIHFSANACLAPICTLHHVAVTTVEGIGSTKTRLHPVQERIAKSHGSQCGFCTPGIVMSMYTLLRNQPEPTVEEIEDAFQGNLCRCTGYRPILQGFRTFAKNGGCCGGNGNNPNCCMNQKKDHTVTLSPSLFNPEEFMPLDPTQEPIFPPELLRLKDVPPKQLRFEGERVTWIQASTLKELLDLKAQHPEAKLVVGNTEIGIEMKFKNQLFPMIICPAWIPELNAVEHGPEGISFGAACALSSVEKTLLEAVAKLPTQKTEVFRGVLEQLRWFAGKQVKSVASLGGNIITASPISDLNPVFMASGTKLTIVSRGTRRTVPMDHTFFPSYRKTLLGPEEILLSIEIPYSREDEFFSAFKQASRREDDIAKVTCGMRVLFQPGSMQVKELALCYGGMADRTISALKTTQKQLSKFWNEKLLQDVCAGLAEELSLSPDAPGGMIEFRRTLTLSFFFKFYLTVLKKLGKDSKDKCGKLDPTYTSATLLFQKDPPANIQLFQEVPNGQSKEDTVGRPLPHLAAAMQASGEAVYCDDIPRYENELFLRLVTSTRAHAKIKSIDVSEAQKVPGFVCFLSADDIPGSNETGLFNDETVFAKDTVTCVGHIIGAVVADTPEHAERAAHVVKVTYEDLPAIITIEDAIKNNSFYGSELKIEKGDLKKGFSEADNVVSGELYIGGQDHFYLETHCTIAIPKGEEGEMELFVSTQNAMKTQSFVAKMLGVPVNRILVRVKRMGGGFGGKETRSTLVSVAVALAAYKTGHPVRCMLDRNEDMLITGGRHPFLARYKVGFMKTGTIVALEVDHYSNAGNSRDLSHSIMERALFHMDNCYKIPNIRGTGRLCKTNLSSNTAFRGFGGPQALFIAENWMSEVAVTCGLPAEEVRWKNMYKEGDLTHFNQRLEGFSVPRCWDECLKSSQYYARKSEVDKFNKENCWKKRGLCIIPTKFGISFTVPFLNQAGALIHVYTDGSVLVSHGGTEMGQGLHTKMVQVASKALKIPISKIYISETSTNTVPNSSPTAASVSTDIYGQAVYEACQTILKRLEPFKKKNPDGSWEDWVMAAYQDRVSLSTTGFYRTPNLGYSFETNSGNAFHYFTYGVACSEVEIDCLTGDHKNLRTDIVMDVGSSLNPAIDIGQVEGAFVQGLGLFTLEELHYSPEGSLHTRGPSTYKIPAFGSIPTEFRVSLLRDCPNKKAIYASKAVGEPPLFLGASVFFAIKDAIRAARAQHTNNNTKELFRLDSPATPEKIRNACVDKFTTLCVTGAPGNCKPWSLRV
Test: Inhibition of bovine milk xanthine oxidase using xanthine as substrate preincubated for 30 mins followed by substrate addition by spectrophotometric analysis
Measured property: IC50 (µM)
Unit µM implied. Number only.

Req: Can you share its IC50? I mean this compound: O=c1cc(O)cc(/C=C/c2ccc(O)c(O)c2)o1 [HISPIDIN]
Resp: 39.7

====

Target: Xanthine dehydrogenase/oxidase (Bos taurus)
Test: Inhibition of bovine serum Xanthine oxidase
Type: cell-free
Measured property: IC50
Hi, when you answer, please include the unit after the number. Thanks!

Req: Can you share its IC50? I mean this molecule: "N#Cc1cc[n+](Cc2ccc(-c3ccc(C[n+]4ccc(C#N)c(C(=O)O)c4)cc3)cc2)cc1C(=O)O"
Resp: 0.394 µM

====

Target: Xanthine dehydrogenase/oxidase (Homo sapiens, UniProt P47989)
Assay: Inhibition of Xanthine oxidase (unknown origin)
Quick reference for IC50 among some compounds
Hi, when you answer, please include the unit after the number. Thanks!

Example entries and their recorded answers appear below.
Query smiles: O=c1[nH]c(-c2ccc(OCC3CCCCC3)c(-n3cnnn3)c2)no1
Study target: Xanthine dehydrogenase/oxidase (Homo sapiens, UniProt P47989)
Result: 121 nM
//
Query smiles: C=Cc1ccc(C[n+]2cn(Cc3ccc(SC)cc3)c3ccccc32)cc1
Study target: Xanthine dehydrogenase/oxidase (Homo sapiens, UniProt P47989)
Result: 590 nM
//
Query smiles: COc1ccc(C(=O)/C=C/c2ccc(O)cc2)c(OC)c1
Study target: Xanthine dehydrogenase/oxidase (Homo sapiens, UniProt P47989)
Result: 121 nM
//
Query smiles: C[C@@H]1O[C@@H](OC[C@H]2O[C@@H](Oc3c(-c4ccc(O)c(O)c4)oc4cc(O)cc(O)c4/c3=N\Nc3ccccc3)[C@H](O)[C@@H](O)[C@@H]2O)[C@H](O)[C@H](O)[C@H]1O
Study target: Xanthine dehydrogenase/oxidase (Homo sapiens, UniProt P47989)
Result: 4870 nM

Req: Can you share its IC50? I mean this compound: "O=[N+]([O-])c1ccc(-c2cnc(-c3ccc(Br)cc3)s2)cc1"
Resp: 100 nM
